IC50 values by entry
target: Amine oxidase [flavin-containing] B (Homo sapiens, UniProt P27338); assay: Inhibition of human recombinant MAOB expressed in Pichia pastoris incubated for 15 mins prior to substrate addition measured after 30 mins by luminescence assay
Sequence (P27338 whole entry): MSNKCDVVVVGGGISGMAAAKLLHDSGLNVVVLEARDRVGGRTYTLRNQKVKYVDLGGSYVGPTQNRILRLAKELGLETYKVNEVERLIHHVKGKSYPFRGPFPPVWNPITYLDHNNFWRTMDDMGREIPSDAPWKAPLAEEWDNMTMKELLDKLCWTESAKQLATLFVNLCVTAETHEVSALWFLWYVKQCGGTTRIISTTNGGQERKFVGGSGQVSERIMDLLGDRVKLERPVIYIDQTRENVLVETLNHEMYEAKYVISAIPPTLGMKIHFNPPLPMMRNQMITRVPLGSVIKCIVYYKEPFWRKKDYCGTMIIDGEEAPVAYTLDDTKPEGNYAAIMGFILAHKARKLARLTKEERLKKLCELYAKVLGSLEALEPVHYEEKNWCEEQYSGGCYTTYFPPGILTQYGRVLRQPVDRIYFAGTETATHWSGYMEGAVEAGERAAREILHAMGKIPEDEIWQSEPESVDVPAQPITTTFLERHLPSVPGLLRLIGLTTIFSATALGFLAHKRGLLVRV
READOUT_KIND: IC50 (µM)

                                smiles_code  value_measured
0  N[C@@H]1C[C@H]1c1ccc(NC(=O)[C@H](Cc2ccccc2)NC(=O)OCc2ccccc2)cc1              32
1  N[C@H]1C[C@@H]1c1ccc(NC(=O)[C@H](Cc2ccccc2)NC(=O)OCc2ccccc2)cc1            42.6

* * *

biological target: MAO-B (amine oxidase [flavin-containing] B) (Homo sapiens, UniProt P27338); test: Inhibition of human recombinant MAOB expressed in Pichia pastoris at 100 uM incubated for 15 mins prior to substrate addition measured after 30 mins by luminescence assay
Sequence (P27338 whole entry): as above
READOUT_KIND: inhibition at 0.5 h, 100 µM

In [3]: df
Out[3]:
                                   compound  value_measured
0  Cl.NC1CC1c1ccc(NC(=O)C(Cc2ccccc2)NC(=O)OCc2ccccc2)cc1 (mixture of isomers)             40%
1  N[C@H]1C[C@@H]1c1ccc(NC(=O)[C@@H](Cc2ccccc2)NC(=O)OCc2ccccc2)cc1             14%
2  N[C@@H]1C[C@H]1c1ccc(NC(=O)[C@@H](Cc2ccccc2)NC(=O)OCc2ccccc2)cc1             33%
